Assay: Inhibition of compound against Guanine-7-methyl transferase
ENDPOINT LABEL: Ki (µM)
Supply the numeric figure in µM, leaving out any unit text.

What Ki value was documented for this compound, Nc1nc(O)c2cc(CSC[C@H]3O[C@@H](n4cnc5c(N)ncnc54)[C@H](O)[C@@H]3O)[nH]c2n1 ? 93
